- experimental protocol: solvent given as SMILES
- cond: in Cc1ccccc1
Param label: returns Yes when absorption maximum < 400 nm, returns No otherwise, including exact equality.

Please indicate whether the reported absorption maximum of `COCCC1=Cc2nc1ccc1[nH]c(cc1CCOC)c1nc(c(O)cc3[nH]c2cc3CCOC)C(CCOC)=C1` is strictly below 400 nm.
No

Please indicate whether the reported absorption maximum of `CN(C)c1ccc(C#Cc2ccc3ccc4ccc(C#Cc5ccc(N(C)C)cc5)c5ccc2c3c45)cc1` is strictly below 400 nm.
No

Please indicate whether the reported absorption maximum of `CCCCN1C(=O)c2cccc3c([O-])c(/C=C/c4sc5ccccc5[n+]4CC)cc(c23)C1=O` is strictly below 400 nm.
No

Please indicate whether the reported absorption maximum of `N#Cc1ccc2c(c1)C1(c3cc(C#N)ccc3-2)c2ccccc2N(c2ccccc2)c2ccccc21` is strictly below 400 nm.
Yes

Please indicate whether the reported absorption maximum of `Fc1c(F)c(F)c([B-]2(c3c(F)c(F)c(F)c(F)c3F)Oc3c(ccc4c5c(ccc34)C=[N+](c3ccccc3)[B-](c3c(F)c(F)c(F)c(F)c3F)(c3c(F)c(F)c(F)c(F)c3F)O5)C=[N+]2c2ccccc2)c(F)c1F` is strictly below 400 nm.
No

Please indicate whether the reported absorption maximum of `CN(C)c1ccc(-c2cc(-c3ccc(C#N)cc3)nn2C)cc1` is strictly below 400 nm.
Yes

Please indicate whether the reported absorption maximum of `c1ccc2c(-n3c4ccccc4c4ccccc43)cccc2c1` is strictly below 400 nm.
Yes

Please indicate whether the reported absorption maximum of `CCCCC1(CCCC)c2cc(C#Cc3ccc4ccc5cccc6ccc3c4c56)ccc2-c2ccc(C#Cc3ccc4ccc5cccc6ccc3c4c56)cc21` is strictly below 400 nm.
No

Please indicate whether the reported absorption maximum of `CN(C)c1ccc(C2=[N+]3C(=Nc4c(-c5ccc(O)cc5)cc(-c5ccc(N(C)C)cc5)n4[B-]3(F)F)C(c3ccc(O)cc3)=C2)cc1` is strictly below 400 nm.
No

Please indicate whether the reported absorption maximum of `CCN(CC)c1ccc([N+]2=Cc3ccc4c5c(ccc4c3O[B-]2(c2ccccc2)c2ccccc2)C=[N+](c2ccc(N(CC)CC)cc2)[B-](c2ccccc2)(c2ccccc2)O5)cc1` is strictly below 400 nm.
No

Please indicate whether the reported absorption maximum of `CCCCCCc1ccc2c3c(ccc2c1)O[B-](F)(F)[N+](c1ccc([N+]2=Cc4c(ccc5cc(CCCCCC)ccc45)O[B-]2(F)F)cc1)=C3` is strictly below 400 nm.
No

Please indicate whether the reported absorption maximum of `COC(=O)/C(C#N)=c1\s/c(=c2/s/c(=C(/C#N)C(=O)OC)c3cc(-c4ccc5c(c4)C(C)(C)c4ccccc4-5)sc23)c2sc(-c3ccc4c(c3)C(C)(C)c3ccccc3-4)cc12` is strictly below 400 nm.
No

====

# absorption maximum listing for each entry below
- experimental protocol: solvent given as SMILES
- cond: in ClCCl
Just the number please, in nm, no unit attached.

Known absorption maximum results, listed for orientation:
# compound, output unit, experimental value
data = [
    ("CCCCC(CC)COc1ccc2nc(-c3ccc(-c4ccccc4)s3)sc2c1 (configuration not stated)", "nm", 368),
    ("COc1ccc(C#Cc2nc3ccccc3nc2-c2cn(C)c3ccccc23)cc1", "nm", 408),
    ("Oc1ccccc1/N=C/c1ccccc1Oc1ccccc1", "nm", 356),
]

Memo: `COc1ccc(C2=CC(c3ccccc3)=C(c3ccccc3)C2)c2ccccc12` , reported absorption maximum: 354

Memo: `CCCCCCCCCCn1c(-c2cc(-c3nc4ccccc4n3CCCCCCCCCC)cc(-c3nc4ccccc4n3CCCCCCCCCC)c2)nc2ccccc21` , reported absorption maximum: 299.5

Memo: `CCN(CC)c1ccc(Nc2cc3oc(-c4ccc(C#N)cc4)nc3c3ccccc23)cc1` , reported absorption maximum: 420

Memo: `COc1c2ccccc2c(OC)c2c(C#Cc3ccccc3)c3cc4ccccc4cc3c(C#Cc3ccccc3)c12` , reported absorption maximum: 704

Memo: `Cc1c(C(=O)c2ccc(C(F)(F)F)cc2)c2ccc3cccc4c5cccc6ccc1c(c65)c2c34` , reported absorption maximum: 370

Memo: `CN(C)c1ccc(C2=C3C=C(c4ccc(C=O)cc4)S[C@]34c3ccccc3[C@H]2c2ccccc24)cc1` , reported absorption maximum: 464

Memo: `C(#Cc1ccccc1)c1ccccc1` , reported absorption maximum: 299

Memo: `CCOC(=O)CC[N+]1=c2cc3c(cc2CCC1)=Cc1c(c2ccc(N(C)C)cc2oc1=O)O3` , reported absorption maximum: 606
